- System: 186277-243-T-J2-PDC complex spheroid viability
- procedure_text: Anticancer human tumor 186277-243-T-J2-PDC patient-derived colon adenocarcinoma cell line growth inhibition [GQUAD]; active = viability on the fitted dose curve at most 10% of control; inactive = the rest
- experimental_conditions: second compound 0.0316 µM; first compound 0.1 µM
Possible outcomes: active, inactive

>>> category_label("CC(=O)O[C@H]1C(=O)[C@@]2(C)[C@H]([C@H](OC(=O)c3ccccc3)[C@]3(O)C[C@H](OC(=O)[C@H](O)[C@@H](NC(=O)c4ccccc4)c4ccccc4)C(C)=C1C3(C)C)[C@]1(OC(C)=O)CO[C@@H]1C[C@@H]2O + Cc1[nH]c2ccc(F)cc2c1-c1nc2c3cccnc3c3ncccc3c2[nH]1")
"active"
>>> category_label("CC(C)(O)C1CCC(Nc2ccc3ncc(-c4cccc(C(F)(F)F)c4)n3n2)CC1 (configuration not stated) + Cc1cnc(CNC(=O)c2c(=O)c3ccc(N4CCCN(C)CC4)nc3n3c2sc2ccccc23)cn1")
"inactive"

----------
- Tested on: 186277-243-T-J2-PDC complex spheroid viability
- procedure_text: Anticancer human tumor 186277-243-T-J2-PDC cell line growth inhibition [GQUAD];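 note: spheroids exposed to drugs for 7 days; 100% = DMSO vehicle control viability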
- experimental_conditions: second compound 0.0316 µM; first compound 0.1 µM; hits give low values
measurement_label: viability, T/C (%)

>>> value_reported("O=C(NO)c1cnc(N2CCN(S(=O)(=O)c3ccc4ccccc4c3)CC2)nc1 + Cc1cnc(CNC(=O)c2c(=O)c3ccc(N4CCCN(C)CC4)nc3n3c2sc2ccccc23)cn1")
71.1
>>> value_reported("C=CCn1c(=O)c2cnc(Nc3ccc(N4CCN(C)CC4)cc3)nc2n1-c1cccc(C(C)(C)O)n1 + Cc1[nH]c2ccc(F)cc2c1-c1nc2c3cccnc3c3ncccc3c2[nH]1")
83.8
>>> value_reported("O=c1[nH]cc(F)c(=O)[nH]1 + CN(C)c1ccc(Nc2c3ccc(NC(=O)CCN4CCCC4)cc3nc3cc(NC(=O)CCN4CCCC4)ccc23)cc1")
97.1

----------
Each entry below lists one item and its recorded viability, T/C value.
- System: 186277-243-T-J2-PDC complex spheroid viability
- procedure_text: Anticancer human tumor 186277-243-T-J2-PDC cell line growth inhibition [GQUAD];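 note: spheroids exposed to drugs for 7 days; 100% = DMSO vehicle control viability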
- experimental_conditions: second compound 3.16 µM; first compound 0.0316 µM; hits give low values
measurement_label: viability, T/C (%)

>>> value_reported("O=C(NO)c1cnc(N2CCN(S(=O)(=O)c3ccc4ccccc4c3)CC2)nc1 + Cc1cnc(CNC(=O)c2c(=O)c3ccc(N4CCCN(C)CC4)nc3n3c2sc2ccccc23)cn1")
33.3
>>> value_reported("C#Cc1c(F)ccc2cc(O)cc(-c3ncc4c(N5CC6CCC(C5)N6)nc(OCC56CCCN5CC(F)C6)nc4c3F)c12 (centres undefined) + Cc1cnc(CNC(=O)c2c(=O)c3ccc(N4CCCN(C)CC4)nc3n3c2sc2ccccc23)cn1")
17.2
>>> value_reported("CCCS(=O)(=O)Nc1ccc(F)c(C(=O)c2c[nH]c3ncc(-c4ccc(Cl)cc4)cc23)c1F + CN(C)c1ccc(Nc2c3ccc(NC(=O)CCN4CCCC4)cc3nc3cc(NC(=O)CCN4CCCC4)ccc23)cc1")
92.2
>>> value_reported("Cc1cccc(N(C)C(=O)C2C(O)CCN2c2nc(C)cc(C(F)(F)F)c2C#N)c1 (centres undefined) + CN(C)c1ccc(Nc2c3ccc(NC(=O)CCN4CCCC4)cc3nc3cc(NC(=O)CCN4CCCC4)ccc23)cc1")
86.4
